# credit: patent US20250270343A1

Form field: Inflammasome: Fold Decrease IL-1β (max response at 0.3 µg/ml) (one value per entry).
Biological target: T1, full-length untagged human GPNMB expressed on cells (human, UniProt Q14956 23-572)
T1 sequence: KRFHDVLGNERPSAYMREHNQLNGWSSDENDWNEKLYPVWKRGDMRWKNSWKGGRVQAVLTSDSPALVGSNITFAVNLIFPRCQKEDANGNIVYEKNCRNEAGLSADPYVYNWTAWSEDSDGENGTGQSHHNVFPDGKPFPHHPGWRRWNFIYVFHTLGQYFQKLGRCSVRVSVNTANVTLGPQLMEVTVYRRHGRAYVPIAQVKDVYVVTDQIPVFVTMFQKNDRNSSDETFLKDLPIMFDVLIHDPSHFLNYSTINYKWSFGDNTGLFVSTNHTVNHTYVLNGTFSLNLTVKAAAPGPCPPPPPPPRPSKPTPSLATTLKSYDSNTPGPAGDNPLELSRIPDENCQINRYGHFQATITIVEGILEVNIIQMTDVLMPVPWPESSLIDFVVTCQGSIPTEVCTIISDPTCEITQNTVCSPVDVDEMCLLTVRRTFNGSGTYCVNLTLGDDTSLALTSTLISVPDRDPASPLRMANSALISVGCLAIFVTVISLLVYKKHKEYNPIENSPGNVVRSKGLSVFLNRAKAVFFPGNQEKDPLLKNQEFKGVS
Experiment: cell-based or functional assay
Your answer should be a plain number; it is taken to be in fold.

The following binders have reported results that may help.
1) anti-GPNMB antibody GPN-95 (antibody, V domains shown, also called PGN-95) VH: QVQLVQSGAEVKKPGASVKVSCKASGYTFTSYWMHWVRQAPGQGLEWMGEINPYDQRTNYAQKFQGRVTMTVDKSTSTVYMELSSLRSEDTAVYYCARSTGNYAWFAYWGQGTLVTVSS VL: DIVMTQSPDSLAVSLGERATINCKTSQDVSPSLAWYQQKPGQPPKLLIYSARYRYTGVPDRFSGSGSGTDFTLTISSLQAEDVAVYYCQQHYSIPLQFGGGTKVEIK	0.45
2) anti-GPNMB antibody GPN-97 (antibody, V domains shown) VH: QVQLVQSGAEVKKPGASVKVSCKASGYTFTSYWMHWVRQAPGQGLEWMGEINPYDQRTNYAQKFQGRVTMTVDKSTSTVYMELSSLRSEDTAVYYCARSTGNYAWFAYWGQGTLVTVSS VL: DIVMTQSPDSLAVSLGERATINCKTSQDVSPSLAWYQQKPGQPPKLLIYSGSYRYTGVPDRFSGSGSGTDFTLTISSLQAEDVAVYYCQQHYSIPLTFGGGTKVEIK	0.476

Now examine the next entry.
Exercise: Entry anti-GPNMB antibody GPN-83 (antibody, V domains shown) VH: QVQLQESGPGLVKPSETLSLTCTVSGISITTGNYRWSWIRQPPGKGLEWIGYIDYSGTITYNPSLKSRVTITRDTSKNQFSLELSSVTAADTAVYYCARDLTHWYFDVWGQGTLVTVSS VL: DIVMTQSPDSLAVSLGERATINCKSSRSVDYYGIGFVNWYQQKPGQPPKLLIYATSIQGSGVPDRFSGSGSGTDFTLTISSLQAEDVAVYYCQQQKEVPPTFGGGTKVEIK has what Inflammasome: Fold Decrease IL-1β (max response at 0.3 µg/ml)?
Solution: 0.472
